System: OVCAR-4 ovarian
protocol.text: NCI tumour cell line growth inhibition, 48 h
I'd be grateful if you could share measured GI50 for these entries.

Example cases with answers are listed next.
{"columns": ["compound", "GI50"],
 "data": [
  ["CN1CCC2(CC1)NC(=O)c1c(c3ccc(Cl)c(Cl)c3n1C)C2C#N (centres undefined)", "11700 nM"],
  ["C=C1C(=O)O[C@H]2C[C@@H]1CC/C(C)=C/CC/C(C)=C/CC[C@@]2(C)O", "> 100000 nM"],
  ["COc1ccc(Nc2cc(C)nc(NCc3ccccc3)n2)cc1", "2420 nM"],
  ["Cc1ccc(-c2cc3c4c(nc5ccccc53)C(=O)c3cccnc3-c4n2)cc1", "15600 nM"],
  ["COc1cccc(/C=N/NC(=O)c2ccccc2N2CCCC2)c1O", "2630 nM"],
  ["NC1CCCCC1N.O=[Se]([O-])[O-].[Pt+4] (centres undefined)", "2630 nM"]
]}

Dear colleague, could you send me GI50 for each of the items below? Thanks.
1. O=C(/C(=C/c1ccc([N+](=O)[O-])cc1)SCc1ccc(Cl)cc1)c1ccc(F)cc1
2. CN(C)CCCCC(C(=O)CBr)(c1ccccc1)c1ccccc1
3. COc1cc2ncnc(Nc3cccc(Cl)c3F)c2cc1OC(=O)N1CCN(C)C[C@H]1C

OUTPUT:
["3110 nM", "1540 nM", "> 44500 nM"]

---

System: UACC-257 melanoma
protocol.text: NCI tumour cell line growth inhibition, 48 h
Where a SMILES comes first, the peptide text is derived from it. [ ]: non-standard residue; d: D form. Phe(4-NO2) = N[CH](Cc1ccc([N+](=O)[O-])cc1)C(=O)O
I'd be grateful if you could share measured TGI for these entries.

Example cases with answers are listed next.
{"columns": ["compound", "TGI"],
 "data": [
  ["CCC1CCN=C(NS(=O)(=O)c2cc(C)c(Cl)cc2S)N1 (stereo not drawn)", "> 100 µM"],
  ["NC(N)=NC(N)=Nc1cnccn1", "> 100 µM"],
  ["CC(NC(=O)C(Cc1ccc([N+](=O)[O-])cc1)NC(=O)C(N)CCCCN)C(=O)NC(Cc1ccc([N+](=O)[O-])cc1)C(N)=O (stereo not drawn) (H-K[Phe(4-NO2)]A[Phe(4-NO2)]-NH2; configuration not given here)", "> 84.7 µM"]
]}

Dear colleague, could you send me TGI for each of the items below? Thanks.
1. Cc1[nH]c(=O)[nH]c(=O)c1/C=C/C(=O)NC(CO)CS(=O)Cc1ccccc1 (stereo not drawn)
2. C[C@]12CC[C@@H]3c4cc(OC(F)F)c(OS(N)(=O)=O)cc4CC[C@H]3[C@@H]1CC[C@@H]2OS(N)(=O)=O
3. CC1=NC2c3c(-c4ccc(Cl)cc4)cn(-c4ccc(C)cc4)c3N=CN2N1 (stereo not drawn)
4. CC(C)(C)[Si](C)(C)OC1[C@@H](O[Si](C)(C)C(C)(C)C)[C@@H](CNC(=O)NC(=O)CF)O[C@H]1n1cnc2c(NC(=O)Nc3ccccc3)ncnc21 (stereo partly drawn)
5. COc1ccc(OC)c(C2CCc3c(cnc4nc(N)nc(N)c34)C2)c1 (stereo not drawn)
6. COC(=O)C(C)(C)[C@@H]1OC(=O)N(S(=O)(=O)c2c(C)cc(C)cc2C)[C@H]1C(C)C
7. CN(C)CCCCC(C(=O)CBr)(c1ccccc1)c1ccccc1
8. COc1ccc2cc(C(=O)/C=C/c3ccc(N(C)C)cc3)ccc2c1

OUTPUT:
> 300 µM
24.8 µM
> 100 µM
> 50 µM
23.4 µM
> 100 µM
6.59 µM
> 100 µM

Dear colleague, could you send me TGI for each of the items below? Thanks.
1. N#Cc1c(N2CCOCC2)nc(=S)[nH]c1-c1ccccc1
2. O=[N+]([O-])c1ccc(Oc2c(Cl)cc(S(=O)(=O)/N=C(\NO)Nc3ccc(Cl)cc3)cc2Cl)c(Cl)c1

OUTPUT:
1: > 100 µM; 2: 30.8 µM

---

Tested on: SNB-78 CNS
protocol.text: NCI tumour cell line growth inhibition, 48 h
I'd be grateful if you could share measured TGI for these entries.

Example cases with answers are listed next.
{"columns": ["compound", "reported.result"],
 "data": [
  ["CCOP12(OCC)NC(=O)OC1(C(F)(F)F)c1ccccc1O2 (centres undefined)", "> 100 µM"],
  ["CC(=O)C1Cn2c(=O)c3cc4ccccc4cc3c(=O)n2C=C1C (centres undefined)", "> 100 µM"],
  ["O=C1CC2(CCC3=C(O2)c2ccccc2NC(=O)C3)C(=O)c2ccccc2N1 (centres undefined)", "> 100 µM"],
  ["OCCCNc1ccnc2cc(Cl)ccc12", "> 100 µM"]
]}

Dear colleague, could you send me TGI for each of the items below? Thanks.
1. COC(=O)c1ccccc1N1C(=O)Cc2ccccc2C1=O
2. CC1(Br)CC2OC3(Br)C=CC(C)(O)C2(CC1=O)C3(C)C (centres undefined)

OUTPUT:
1: > 100 µM; 2: > 100 µM

Dear colleague, could you send me TGI for each of the items below? Thanks.
1. CCCn1cc2c(SC)nc(SC)nc2n1
2. NC1CCCCC1N.O=[Se]([O-])[O-].[Pt+4] (centres undefined)
3. COc1ccc(Cc2c(=O)[nH]nc3ccccc23)cc1

OUTPUT:
> 100 µM
> 100 µM
> 100 µM

---

Test system: NCI-H460 lung
Outcomes you can answer with include only these: active, inactive

INPUT: What call does the record list for CCN1C(=O)N(CC)C2C1NN=c1s/c(=C\c3ccco3)c(=O)n12 (stereo not given) ?
OUTPUT: active

---

I'd be grateful if you could share measured TGI for these entries.
Tested on: HCT-15 colon
protocol.text: NCI tumour cell line growth inhibition, 48 h

{"columns": ["compound", "TGI"],
 "data": [
  ["C[Si](C)(N[Si](C)(C)OCCc1ccccc1)OCCc1ccccc1", "> 100 µM"],
  ["N=C(N)SCc1c2ccccc2c(CSC(=N)N)c2ccccc12", "32.4 µM"],
  ["CCCc1cc(=O)n2c(C(=O)Nc3cccc(C(=O)OCC)c3)c(C(=O)Nc3ccc(F)cc3)sc2n1", "> 140 µM"],
  ["CCOC(=O)c1cc(C(=O)c2cc(OC)c(OC)c(OC)c2)n2c1ccc1ccccc12", "> 100 µM"],
  ["COC(=O)C1=COC(C)C2CN3CCc4c([nH]c5cc(OC)c(OC)cc45)C3CC12 (stereo not drawn)", "> 100 µM"],
  ["CO[C@H]1C[C@H](O[C@H]2CC[C@]3(C=O)[C@H]4CC[C@]5(C)[C@@H](C6=CC(=O)OC6)CC[C@]5(O)[C@@H]4CC[C@]3(O)C2)O[C@H](C)[C@H]1O[C@@H]1O[C@H](CO)[C@@H](O)[C@H](O)[C@H]1O", "8.31e-05 µM"]
]}

Dear colleague, could you send me TGI for each of the items below? Thanks.
1. O=C(OC1CCC2OOC1O2)c1ccc([N+](=O)[O-])cc1 (stereo not drawn)
2. C=CCN1C[C@H](C)N([C@@H](c2ccc(C(=O)N3CCCCC3)cc2)c2cccc(OC)c2)C[C@H]1C

OUTPUT:
> 100 µM
> 100 µM

---

System: HCT-15 colon
protocol.text: NCI tumour cell line growth inhibition, 48 h
quantity: TGI

{"columns": ["compound", "study.target", "TGI"],
 "data": [
  ["O=C(/C(=C/c1ccc([N+](=O)[O-])cc1)SCc1ccc(Cl)cc1)c1ccc(F)cc1", "HCT-15 colon", "4.26 µM"],
  ["CN(C)CCCCC(C(=O)CBr)(c1ccccc1)c1ccccc1", "HCT-15 colon", "3.37 µM"],
  ["O=C1[C@@H]2C(c3ccccc3[N+](=O)[O-])=[N+](c3ccccc3)O[C@@H]2C(=O)N1c1ccc(Cc2ccc(N3C(=O)[C@H]4C(c5ccccc5[N+](=O)[O-])=[N+](c5ccccc5)O[C@H]4C3=O)cc2)cc1", "HCT-15 colon", "> 100 µM"]
]}

INPUT: Notebook entry, HCT-15 colon assay: TGI of CCCCNC(=O)C1C(=O)N(CCCC)C(=O)/C1=N\N (centres undefined) = ?
OUTPUT: > 100 µM

---

System: UO-31 renal
protocol.text: NCI tumour cell line growth inhibition, 48 h
quantity: TGI (µM)
Give bare numbers, in µM.

Dear colleague, could you send me TGI for each of the items below? Thanks.
1. C=C1C(=O)O[C@H]2[C@H]1CC/C(C=Nc1c(N)cc(C(F)(F)F)cc1C(F)(F)F)=C\CC[C@@]1(C)O[C@@H]21
2. COc1ccc(-c2cc(-c3ccc(O)cc3O)c(C#N)c(=O)[nH]2)cc1

OUTPUT:
2.38
69.6

---

Tested on: RXF 393 renal
protocol.text: NCI tumour cell line growth inhibition, 48 h
quantity: GI50

Example cases with answers are listed next.
{"columns": ["compound", "reported.result"],
 "data": [
  ["Cn1nc(C(F)(F)F)cc1-c1c[nH]c(OCc2ccc(Cl)cc2)c(-c2ccc(Cl)c(C(F)(F)F)c2)c1=O", "1.13 µM"],
  ["Cn1cc(C2=C(c3c4n(c5ccccc35)CCC(CN)C4)C(=O)NC2=O)c2ccccc21 (stereo not given)", "3.01 µM"],
  ["N#C[Se]CCN1C(=O)C2C(C1=O)[C@H]1C=C[C@@H]2S1 (stereo not given in full)", "1.63 µM"],
  ["COc1ccc2c(O)c(/C=C3\\N=Nc4ccccc43)oc2c1C[C@@H]1CCNC[C@H]1F", "1.66 µM"]
]}

Field: next compound
INPUT: # GI50 lookup, item COc1cccc(/C=N/NC(=O)c2ccccc2N2CCCC2)c1O
OUTPUT: 44.4 µM

// data source = PubChem BioAssay (NCI)
